Reported DC50 values for a set of compounds
subjectOfTest: TYK2 (Homo sapiens, UniProt P29597)
Sequence (P29597 whole entry): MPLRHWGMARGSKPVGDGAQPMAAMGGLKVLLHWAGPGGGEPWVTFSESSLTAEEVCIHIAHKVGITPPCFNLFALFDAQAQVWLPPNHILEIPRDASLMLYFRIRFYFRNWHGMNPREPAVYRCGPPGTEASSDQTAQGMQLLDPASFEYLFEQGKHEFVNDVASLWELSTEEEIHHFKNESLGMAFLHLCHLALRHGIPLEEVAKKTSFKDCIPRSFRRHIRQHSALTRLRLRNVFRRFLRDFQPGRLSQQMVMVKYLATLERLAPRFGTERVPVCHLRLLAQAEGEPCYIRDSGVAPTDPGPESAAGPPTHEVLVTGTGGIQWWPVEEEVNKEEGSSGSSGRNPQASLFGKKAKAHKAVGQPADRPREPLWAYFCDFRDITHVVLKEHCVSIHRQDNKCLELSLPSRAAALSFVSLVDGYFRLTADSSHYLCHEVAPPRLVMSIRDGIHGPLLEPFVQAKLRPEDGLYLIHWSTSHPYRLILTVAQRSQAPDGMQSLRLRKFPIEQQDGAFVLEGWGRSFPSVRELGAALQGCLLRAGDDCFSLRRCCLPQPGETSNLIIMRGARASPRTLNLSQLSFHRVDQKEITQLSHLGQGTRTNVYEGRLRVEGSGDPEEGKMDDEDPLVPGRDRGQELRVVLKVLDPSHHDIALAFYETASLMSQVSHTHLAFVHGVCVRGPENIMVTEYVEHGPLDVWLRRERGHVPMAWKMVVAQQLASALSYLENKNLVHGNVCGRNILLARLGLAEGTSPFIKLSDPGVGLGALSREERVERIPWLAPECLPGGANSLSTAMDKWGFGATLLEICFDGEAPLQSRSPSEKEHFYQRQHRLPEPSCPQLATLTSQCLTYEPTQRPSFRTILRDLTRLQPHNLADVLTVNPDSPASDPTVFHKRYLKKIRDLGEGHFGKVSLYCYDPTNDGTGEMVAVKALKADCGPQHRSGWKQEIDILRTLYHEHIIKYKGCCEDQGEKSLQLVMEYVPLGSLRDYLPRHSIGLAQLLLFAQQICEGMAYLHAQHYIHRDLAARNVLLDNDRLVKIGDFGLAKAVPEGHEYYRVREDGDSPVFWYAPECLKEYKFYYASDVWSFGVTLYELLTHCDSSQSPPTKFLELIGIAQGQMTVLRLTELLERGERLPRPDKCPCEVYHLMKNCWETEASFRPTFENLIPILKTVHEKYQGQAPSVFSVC
protocolDetails: TYK2 degradation MSD assay in OCI-LY10 cells
Type: cell-based
Design: endogenous in cells; host or cells: EBV-B cells
studyConditions: 4 to 24 hours incubation, read-out: TYK2 MSD DC50 rating in OCI-LY10
propertyLabel: DC50

1. CNC(=O)c1cnc(Nc2ccc(N3CCN(c4cccc5c4n(C)c(=O)n5C4CCC(=O)NC4=O)CC3)cn2)cc1Nc1cccc(-c2ncc(F)cn2)c1OC (stereo not shown)
> 100 nM
2. Cn1c(=O)n(C2CCC(=O)NC2=O)c2ccc(N3CCN(C4CN(C5CCN(Cc6ccc(-c7cccc(Nc8ccc9ncc(C(=O)NC%10CC%10)n9n8)c7)nc6)CC5)C4)CC3)cc21 (stereo not shown)
> 100 nM
3. CNC(=O)c1cnc(Nc2ccc(CN3CCC(OCC#Cc4ccc5c(c4)n(C)c(=O)n5C4CCC(=O)NC4=O)CC3)cn2)cc1Nc1cccc(-c2ncc(F)cn2)c1OC (stereo not shown)
> 100 nM
4. CNc1cc(Nc2cccn(-c3ccc(CNCc4ccc(N5CCC(N6CCC(c7ccc8c(c7)n(C)c(=O)n8C7CCC(=O)NC7=O)C6)CC5)cc4)cn3)c2=O)nn2c(C(=O)N[C@@H]3C[C@@H]3F)cnc12 (stereo partly shown)
< 1 nM
5. CNc1cc(Nc2cccc(-c3ccc(C(=O)N4CCN(C5CCC(c6ccc(-c7ccc8c(c7)n(C)c(=O)n8C7CCC(=O)NC7=O)cc6)CC5)CC4)cn3)c2OC)nn2c(C(=O)N[C@@H]3C[C@@H]3F)cnc12 (stereo partly shown)
< 1 nM
6. CNc1cc(Nc2cccc(-c3ccc(CN4CCC(c5ccc(-c6ccc7c(c6)n(C)c(=O)n7C6CCC(=O)NC6=O)cc5)CC4)cn3)c2)nn2c(C(=O)NC3CC3F)cnc12 (stereo not shown)
< 1 nM
7. Cn1c(=O)n(C2CCC(=O)NC2=O)c2ccc(CCOCCOCCOCCOCCNc3cc(Nc4cccn(-c5ccccn5)c4=O)nn4c(C(=O)NC5C[C@@H]5F)cnc34)cc21 (stereo partly shown)
> 100 nM
8. CNc1cc(Nc2cccn(-c3ccc(C(=O)N4CCC(N5CCC(N6CCN(c7cccc8c7n(C)c(=O)n8C7CCC(=O)NC7=O)CC6)CC5)CC4)cn3)c2=O)nn2c(C(=O)N[C@@H]3C[C@@H]3F)cnc12 (stereo partly shown)
1 to 10 nM
9. CNc1cc(Nc2cccc(-c3ccc(CN4CCN(C5CCN(c6ccc7c(c6)n(C)c(=O)n7C6CCC(=O)NC6=O)CC5)CC4)cn3)c2)nn2c(C(=O)N[C@@H]3C[C@@H]3F)cnc12 (stereo partly shown)
< 1 nM
10. CNc1cc(Nc2cccn(-c3cc(C(=O)NCCOCCOCCOCCOCCOCCOCCc4ccc5c(c4)n(C)c(=O)n5C4CCC(=O)NC4=O)ccn3)c2=O)nn2c(C(=O)N[C@@H]3C[C@@H]3F)cnc12 (stereo partly shown)
> 100 nM
11. CNc1cc(Nc2cccc(N3CCC(CN4CCN(c5ccc(-c6ccc7c(c6)n(C)c(=O)n7C6CCC(=O)NC6=O)cc5)CC4)CC3)c2)nn2c(C(=O)N[C@@H]3C[C@@H]3F)cnc12 (stereo partly shown)
< 1 nM
12. CNc1cc(Nc2cccn(-c3ccc(C(=O)N4CCCC5(C4)CN(c4ncc(C#Cc6ccc7c(c6)n(C)c(=O)n7C6CCC(=N)NC6=O)cn4)C5)cn3)c2=O)nn2c(C(=O)N[C@@H]3C[C@@H]3F)cnc12 (stereo partly shown)
> 100 nM
13. CNc1cc(N2CCc3c(CN4CCN(c5ccc(-c6ccc7c(c6)n(C)c(=O)n7C6CCC(=O)NC6=O)cc5)CC4)cccc32)nn2c(C(=O)N[C@@H]3C[C@@H]3F)cnc12 (mixture of isomers)
1 to 10 nM
14. CNC(=O)c1cnc(Nc2ccc(C(=O)NCCCCCCCCc3cccc4c3n(C)c(=O)n4C3CCC(=O)NC3=O)cn2)cc1Nc1cccc(-c2ncc(F)cn2)c1OC (stereo not shown)
> 100 nM
15. CNc1cc(Nc2cccn(-c3ccc(C(=O)C4CCC([C@H]5CCN(c6ccc7c(c6)n(C)c(=O)n7C6CCC(=O)NC6=O)C5)CN4)cn3)c2=O)nn2c(C(=O)N[C@@H]3C[C@@H]3F)cnc12 (stereo partly shown)
> 100 nM
16. CNc1cc(Nc2cccc(-c3ccc(CN4CCN(c5ccc(-c6ccc7c(c6)n(C)c(=O)n7C6CCC(=O)NC6=O)cc5)CC4)cn3)c2C(F)F)nn2c(C(=O)N[C@@H]3C[C@@H]3F)cnc12 (stereo partly shown)
1 to 10 nM
17. Cn1c(=O)n(C2CCC(=O)NC2=O)c2cccc(N3CCC4(CC3)CN(Cc3ccc(-c5cccc(Nc6ccc7ncc(C(=O)NC8CC8)n7n6)c5)nc3)C4)c21 (stereo not shown)
> 100 nM
18. CNc1cc(Nc2cccn(-c3ccc(C(=O)NCCCCCCCCc4cncc(N5CCC[C@H](C(=O)Nc6ccc(=O)n(CC(=O)O)c6)C5)c4)cn3)c2=O)nn2c(C(=O)N[C@@H]3C[C@@H]3F)cnc12
> 100 nM
19. CNc1cc(Nc2cccc(CN3CCC4(CC3)CC(Cc3ccc5c(c3)n(C)c(=O)n5C3CCC(=O)NC3=O)C4)c2)nn2c(C(=O)NC3CC3)cnc12 (stereo not shown)
> 100 nM

Values were extracted from patent US20250051338A1.
